Documented IC50 across a set of molecules
target: MPO (purified from HL60 cells) (Homo sapiens (Human))
Sequence (P05164 49-745): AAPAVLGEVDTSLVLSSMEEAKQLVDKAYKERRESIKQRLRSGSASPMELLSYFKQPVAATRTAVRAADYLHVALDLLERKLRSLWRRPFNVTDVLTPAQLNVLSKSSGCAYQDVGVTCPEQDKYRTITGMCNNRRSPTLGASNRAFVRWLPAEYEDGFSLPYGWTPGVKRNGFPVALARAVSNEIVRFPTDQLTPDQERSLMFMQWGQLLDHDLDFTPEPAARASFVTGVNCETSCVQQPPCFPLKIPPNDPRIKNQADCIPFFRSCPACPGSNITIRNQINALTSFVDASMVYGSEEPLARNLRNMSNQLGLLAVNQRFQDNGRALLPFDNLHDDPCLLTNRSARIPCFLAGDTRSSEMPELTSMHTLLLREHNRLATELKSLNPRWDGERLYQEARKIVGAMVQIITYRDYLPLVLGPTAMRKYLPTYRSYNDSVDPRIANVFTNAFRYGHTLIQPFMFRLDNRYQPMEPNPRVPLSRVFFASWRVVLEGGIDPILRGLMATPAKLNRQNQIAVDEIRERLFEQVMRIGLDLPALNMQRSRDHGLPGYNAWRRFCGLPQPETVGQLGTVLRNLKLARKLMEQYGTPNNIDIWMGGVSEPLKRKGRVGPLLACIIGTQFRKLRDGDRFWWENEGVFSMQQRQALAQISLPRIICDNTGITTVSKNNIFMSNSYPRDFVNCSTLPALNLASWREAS
reportedEndpoint: IC50 (nM)

> print(dat)
                                    molecule                                       tgt  reading
 1  O=c1[nH]c(=S)n(Cc2ccc(Cl)cc2C2COCCN2)c2nc[nH]c12 (stereo not shown)  MPO (purified from HL60 cells) (Homo sapiens (Human))      194
 2  O=c1[nH]c(=S)n(Cc2ccccc2[C@H]2C[C@@H](C(F)F)CCN2)c2cc[nH]c12 (single isomer, unassigned) [Example 19a]  MPO (purified from HL60 cells) (Homo sapiens (Human))     11.9
 3  O=c1[nH]c(=S)n(Cc2cccnc2[C@H]2C[C@H](C(F)(F)F)CCN2)c2cc[nH]c12 (single isomer, unassigned) [Example 31b]  MPO (purified from HL60 cells) (Homo sapiens (Human))       48
 4  O=c1[nH]c(=S)n(Cc2ccc(Cl)cc2[C@H]2COCCN2)c2cc[nH]c12 (single isomer, unassigned) [Example 4a]  MPO (purified from HL60 cells) (Homo sapiens (Human))     18.7
 5  O=c1[nH]c(=S)n(Cc2ccccc2[C@@H]2C[C@H](C(F)(F)F)CCN2)c2nc[nH]c12 [Example 13b]  MPO (purified from HL60 cells) (Homo sapiens (Human))      2.3
 6  O=c1[nH]c(=S)n(Cc2ccccc2[C@H]2CC(F)(F)CCN2)c2cc[nH]c12 (single isomer, unassigned) [Example 12b]  MPO (purified from HL60 cells) (Homo sapiens (Human))      2.7
 7  O=c1[nH]c(=S)n(Cc2ccccc2[C@H]2C[C@H](C(F)(F)F)CCN2)c2nc[nH]c12 (single isomer, unassigned) [Example 18b]  MPO (purified from HL60 cells) (Homo sapiens (Human))      2.7
 8  O=c1[nH]c(=S)n(Cc2ccc(Cl)cc2[C@H]2CCCN2)c2cc[nH]c12 (single isomer, unassigned)  MPO (purified from HL60 cells) (Homo sapiens (Human))        3
 9  O=c1[nH]c(=S)n(Cc2cccnc2[C@H]2C[C@H](C(F)(F)F)CCN2)c2cc[nH]c12 (single isomer, unassigned) [Example 31a]  MPO (purified from HL60 cells) (Homo sapiens (Human))       30
10  O=c1[nH]c(=S)n(Cc2ccccc2[C@@H]2C[C@@H](C(F)(F)F)CCN2)c2cc[nH]c12 (stereo in doubt) [Example 17b]  MPO (purified from HL60 cells) (Homo sapiens (Human))      3.4
11  O=c1[nH]c(=S)n(Cc2cccnc2[C@H]2C[C@@H](C(F)(F)F)CCN2)c2cc[nH]c12 (single isomer, unassigned) [Example 16a]  MPO (purified from HL60 cells) (Homo sapiens (Human))     31.4
12  O=c1[nH]c(=S)n(Cc2ccccc2[C@H]2C[C@@H](C(F)(F)F)CCN2)c2cc[nH]c12 (single isomer, unassigned) [Example 10b]  MPO (purified from HL60 cells) (Homo sapiens (Human))      1.5
13  O=c1[nH]c(=S)n(Cc2cccnc2[C@H]2C[C@@H](C(F)(F)F)CCN2)c2cc[nH]c12 (single isomer, unassigned) [Example 16b]  MPO (purified from HL60 cells) (Homo sapiens (Human))      3.9
